- method.notes: Liver Microsome Stability Assay (rat)
- experimental.parameters: rat liver microsomes, with NADPH, 1.0 uM compound
endpoint: Liver Microsome Stability (Multiple Species): Rat - % Remaining after 30 min w/NADPH (%)
Report as a plain number; the unit % is understood.

compound | unit.abbrev | experimental.value
O=C(Nc1nc(/C=C/c2cn(Cc3ccccc3)cn2)cs1)c1cccn1Cc1ccnc(F)c1 | % | 2.65

Prompt: For `O=C(Nc1nc([C@H]2CCCN2c2ccc(OC3CCN(C(=O)CF)CC3)cc2)cs1)c1cccn1Cc1ccnc(F)c1` , write its Liver Microsome Stability (Multiple Species): Rat - % Remaining after 30 min w/NADPH.
Completion: 39.1

Prompt: For O=C(NC1=NC(CCc2ccccc2)CS1)c1cccn1Cc1ccncc1 (stereo not shown) , write its Liver Microsome Stability (Multiple Species): Rat - % Remaining after 30 min w/NADPH.
Completion: 0.64

Prompt: For `O=C(O)CCCn1cccc1C(=O)Nc1nc([C@H]2CCCN2c2ccccc2)cs1` , write its Liver Microsome Stability (Multiple Species): Rat - % Remaining after 30 min w/NADPH.
Completion: 87.9

* * *

- method.notes: Liver Microsome Stability Assay (human)
- experimental.parameters: human liver microsomes, with NADPH, 1.0 uM compound
Note to self: Liver Microsome Stability (Multiple Species): Human - % Remaining after 30 min w/NADPH under 3% means Met, ties and anything higher get Not met.

molecule | classification
NC(=O)CCCn1cccc1C(=O)Nc1nc([C@H]2CCCN2c2ccccc2)cs1 [Compound C7] | Not met

Prompt: API: query returns whether the molecule falls strictly under 3% in Liver Microsome Stability (Multiple Species): Human - % Remaining after 30 min w/NADPH. Query: CC(C)c1nc(/C=C/c2csc(NC(=O)c3cccn3Cc3ccncc3)n2)co1 [Compound B38]
Completion: Met

Prompt: API: query returns whether the molecule falls strictly under 3% in Liver Microsome Stability (Multiple Species): Human - % Remaining after 30 min w/NADPH. Query: CC(C)c1ccc(N2CCC[C@@H]2c2csc(NC(=O)c3cccn3Cc3ccncc3)n2)cc1 [Compound A23]
Completion: Not met

* * *

- System: IL-2-FL/Gaussia Luciferase
- method.notes: Dox Induced IL2-FL-Gluc Assay
- Format: cell-based
- experimental.parameters: ratio of IL2FLGluc IC50 to PD1ssGluc IC50
# key: entry, value: 24 hr Dox Inducible IL2FLGluc 293FRT/TO: IL2/PD1
Would you mind answering with just the numeric figure?

compound | experimental.value
O=C(Nc1nc(/C=C/c2cn(Cc3ccccc3)cn2)cs1)c1cccn1Cc1ccnc(F)c1 | 120
NC(=O)N1CCC(Oc2ccc(N3CCC[C@@H]3c3csc(NC(=O)c4cccn4Cc4ccnc(F)c4)n3)cc2)CC1 | 3.4
O=C(Nc1nc([C@H]2CCCN2c2ccc(Br)cc2)cs1)c1cccn1Cc1ccnc(F)c1 | 2.5
CC(C)n1cnc(-c2cccc(-c3csc(NC(=O)c4cccn4Cc4ccnc(F)c4)n3)c2)c1 | 4
O=C(Nc1nc([C@H]2CCCN2c2ccc(OC3CCOCC3)cc2)cs1)c1cccn1Cc1ccncc1 | 2
CC(=O)N1CCC(Oc2ccc(N3CCC[C@@H]3c3csc(NC(=O)c4cccn4Cc4ccnc(F)c4)n3)cc2)CC1 | 2
CC(=O)N1CCC(Oc2ccc(N3CCC[C@@H]3c3csc(NC(=O)c4cc(C)cn4Cc4ccnc(F)c4)n3)cc2)CC1 | 1.5
CC(=O)N1CCC(Oc2ccc(N3CCC[C@@H]3c3csc(NC(=O)c4cccn4Cc4ccnc(F)c4)n3)cc2F)CC1 | 1.8
CC(C)c1nc(/C=C/c2csc(NC(=O)c3cccn3Cc3ccnc(F)c3)n2)cn1C | 3.6
CC(=O)N1CCCCC1c1ccc(N2CCC[C@@H]2c2csc(NC(=O)c3cccn3Cc3ccncc3)n2)cc1 (stereo partly drawn) | 2.7

Please find the next compound below.
Prompt: For `O=C(Nc1nc([C@H]2CCCN2c2ccc(OC3CCN(C(=O)C(F)F)CC3)cc2)cs1)c1cccn1Cc1ccnc(F)c1` , write its 24 hr Dox Inducible IL2FLGluc 293FRT/TO: IL2/PD1.
Completion: 1.7
